This collection of values is drawn from the supplement of paper PMC11246515.

Reported total protein half-life in vivo values for the following sequences.
METHOD_DESCRIPTION: total protein half-life in vivo (active degradation + dilution); higher = more stable protein
CONDITION_CONTEXT: wild type E. coli NCM3722; growth: P-lim chemostat; doubling time 12 h

# RESIDUE_SEQUENCE, total protein half-life in vivo
rows = [
    ("MKQLWFAMSLVTGSLLFSANASATPASGALLQQMNLASQSLNYELSFISINKQGVESLRYRHARLDNRPLAQLLQMDGPRREVVQRGNEISYFEPGLEPFTLNGDYIVDSLPSLIYTDFKRLSPYYDFISVGRTRIADRLCEVIRVVARDGTRYSYIVWMDTESKLPMRVDLLDRDGETLEQFRVIAFNVNQDISSSMQTLAKANLPPLLSVPVGEKAKFSWTPTWLPQGFSEVSSSRRPLPTMDNMPIESRLYSDGLFSFSVNVNRATPSSTDQMLRTGRRTVSTSVRDNAEITIVGELPPQTAKRIAENIKFGAAQ [P0AFX9]", "12 h"),
    ("MDLASLRAQQIELASSVIREDRLDKDPPDLIAGADVGFEQGGEVTRAAMVLLKYPSLELVEYKVARIATTMPYIPGFLSFREYPALLAAWEMLSQKPDLVFVDGHGISHPRRLGVASHFGLLVDVPTIGVAKKRLCGKFEPLSSEPGALAPLMDKGEQLAWVWRSKARCNPLFIATGHRVSVDSALAWVQRCMKGYRLPEPTRWADAVASERPAFVRYTANQP", "9.8 h"),
    ("MSKSRLTVFSFVRRFLLRLMVVLAVFWGGGIALFSVAPVPFSAVMVERQVSAWLHGNFRYVAHSDWVSMDQISPWMGLAVIAAEDQKFPEHWGFDVASIEKALAHNERNENRIRGASTISQQTAKNLFLWDGRSWVRKGLEAGLTLGIETVWSKKRILTVYLNIAEFGDGVFGVEAAAQRYFHKPASKLTRSEAALLAAVLPNPLRFKVSSPSGYVRSRQAWILRQMYQLGGEPFMQQHQLD", "12.8 h"),
    ("MRYIVALTGGIGSGKSTVANAFADLGINVIDADIIARQVVEPGAPALHAIADHFGANMIAADGTLQRRALRERIFANPEEKNWLNALLHPLIQQETQHQIQQATSPYVLWVVPLLVENSLYKKANRVLVVDVSPETQLKRTMQRDDVTREHVEQILAAQATREARLAVADDVIDNNGAPDAIASDVARLHAHYLQLASQFVSQEKP [P0A6I9]", "11.1 h"),
    ("MDNDKIDQHSDEIEVESEEKERGKKIEIDEDRLPSRAMAIHEHIRQDGEKELERDAMALLWSAIAAGLSMGASLLAKGIFQVELEGVPGSFLLENLGYTFGFIIVIMARQQLFTENTVTAVLPVMQKPTMSNVGLLIRLWGVVLLGNILGTGIAAWAFEYMPIFNEETRDAFVKIGMDVMKNTPSEMFANAIISGWLIATMVWMFPAAGAAKIVVIILMTWLIALGDTTHIVVGSVEILYLVFNGTLHWSDFIWPFALPTLAGNICGGTFIFALMSHAQIRNDMSNKRKAEARQKAERAENIKKNYKNPA", "12.6 h"),
]
